- tested_target: human Histamine H3 receptor (hH3R) (Homo sapiens, UniProt Q9Y5N1)
- Construct: membranes
- Sequence (Q9Y5N1 whole entry): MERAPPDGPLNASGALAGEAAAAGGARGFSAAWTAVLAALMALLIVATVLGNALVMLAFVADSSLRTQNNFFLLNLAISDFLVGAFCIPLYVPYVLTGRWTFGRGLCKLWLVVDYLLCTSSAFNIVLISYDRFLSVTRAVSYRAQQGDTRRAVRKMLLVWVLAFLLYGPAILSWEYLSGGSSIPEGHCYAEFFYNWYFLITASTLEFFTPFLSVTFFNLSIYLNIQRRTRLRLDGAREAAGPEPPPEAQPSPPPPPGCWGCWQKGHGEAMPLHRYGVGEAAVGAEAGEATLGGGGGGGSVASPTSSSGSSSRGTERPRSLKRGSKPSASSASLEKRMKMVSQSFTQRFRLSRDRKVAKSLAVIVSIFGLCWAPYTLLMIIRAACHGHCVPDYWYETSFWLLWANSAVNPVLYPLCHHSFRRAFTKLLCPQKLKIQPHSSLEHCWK
- assay_overview: GTPγS binding assay, antagonist activity in membranes of CHO cells expressing hH3R
- test_settings: membranes from CHO cells transfected with hH3R; (R)-α-methyl histamine 30 nM; [35S]GTPγS 0.2 nM
measured_metric: IC50 (nM)

Example compounds with recorded IC50:
Note IC50 for the compound shown: CC(C)N1CCN(C(=O)[C@H]2C[C@@H]2c2ccc(C(N)=O)cc2)[C@H](C)C1 (mixture of isomers) 7.48

// Input: CC1(C)CN(C(=O)[C@H]2C[C@@H]2c2ccc(C(N)=O)cc2)CCN1C1CCC1 (racemic) . Output its IC50 only. 15.9

Complete the entry with IC50 for C[C@@H]1CN(C(=O)[C@H]2C[C@@H]2c2ccc(C(N)=O)cc2)CCN1C1CCC1 (mixture of isomers) 8.74

Give a short answer stating reported IC50 for C[C@H]1CN(C(=O)[C@H]2C[C@@H]2c2ccc(C(N)=O)cc2)CCN1C1CCC1 (mixture of isomers) . 14.2

Return value of IC50 for input C[C@H]1CN(C2CCC2)CCN1C(=O)[C@H]1C[C@@H]1c1ccc(C(N)=O)cc1 (mixture of isomers) , no commentary. 8.06

[P] C[C@H]1CN(C2CCC2)CCN1C(=O)[C@H]1C[C@@H]1c1cccc(C(N)=O)c1 (mixture of isomers)
[Q] C[C@@H]1CN(C2CCC2)CCN1C(=O)[C@H]1C[C@@H]1c1ccc(C(N)=O)cc1 (mixture of isomers) [Example 7]
Of P and Q , which shows the smaller IC50 value? Mark your answer with the label of the selected entry. Q
(Q: 8.82 nM, P: 16.3 nM)
